Parameter: composite z-score. Scope: all listed entries.
# experiment summary: probe aEGFR binding to arrayed compounds – biochemical, biotinylated probe, 635/667 nm fluorescence, primary screen (AID 1097);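 further: probe is a biotinylated anti-EGFR antibody binding compounds printed on slides; score combines fluorescence near 667 nm and signal to noise of each spot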
# particulars: small-molecule microarray, higher = more signal

{"columns": ["compound", "composite z-score"],
 "data": [
  ["O=C(NCc1ccccc1)[C@@H]1c2ccccc2C(=O)N(C2CCCCC2)[C@H]1c1ccc(CO)cc1", -0.352],
  ["C=C(CCCC)C(=O)CC[C@H](OC(=O)c1ccccc1-c1ccccc1C(=O)O)c1ccc(CO)o1", -0.065],
  ["COC(=O)[C@@]1(Cc2ccccc2)[C@H]2c3cc(C(=O)N(C)C)n(Cc4cc(F)c(F)c(F)c4)c3C[C@H]2CN1C(=O)c1ccccc1", 0.218],
  ["CN(C)CCCCNC(=O)[C@@H]1C[C@@H]2C(=O)N[C@@H](CCCCN)C(=O)N2[C@@H]1c1cccc(OCCO)c1", -0.223],
  ["COc1cc(NN2C(C(O)c3ccccc3)C=CC3C(=O)N(c4ccccc4)C(=O)C32)cc(OC)c1OC (centres undefined)", 0.016],
  ["C=C(C(=O)CC[C@@H](OC(C)=O)c1ccc(OCCO)cc1)C(C)C", 0.0073],
  ["Cc1ccc(S[C@]2(C(=O)NCc3ccccc3)CC(=O)N(Cc3cc(C(F)(F)F)cc(C(F)(F)F)c3)[C@@H]2c2ccc(CO)cc2)cc1", -0.325],
  ["COc1ccccc1CN1C(=O)c2ccccc2[C@](Cc2ccccc2I)(C(=O)NC2CC2)[C@@H]1c1ccc(CO)cc1", -0.0897],
  ["O=C1O[C@@H](c2ccccc2)[C@@H](c2ccccc2)N2[C@@H](c3ccc(O)cc3)[C@]3(C(=O)Nc4ccccc43)[C@@H](C(=O)N3CCCCCCC3)[C@H]12", 1.13],
  ["CCCC[C@@H]1C[C@H]1[C@@H](NC(=O)c1ccccc1)c1ccccc1", 0.104],
  ["Cc1ccc(N2C(=O)c3ccccc3[C@@H](C(=O)NCC(C)C)[C@@H]2c2ccc(CO)cc2)nc1", -0.298],
  ["O=C(CS)NCCCCCCNC(=O)[C@H]1C[C@H]2C(=O)N3CCC[C@H]3C(=O)N2[C@H]1c1ccc(O)cc1", -0.208],
  ["O[C@@H](Cc1ccccc1)[C@@H](/C=C/c1ccccc1)NCc1ccccc1Br", -0.348],
  ["CCN(CC)c1ccc(N2CC=CC34O[C@@H]5C=CCCOC(=O)C5[C@H]3C(=O)N(CCCO)[C@@H]4C2=O)cc1 (some centres undefined)", -0.162],
  ["COC(=O)[C@@]1(Cc2ccc(F)cc2)[C@H]2c3cc(C(=O)N(C)C)n(CCc4c[nH]c5ccc(OC)cc45)c3C[C@H]2CN1C(=O)c1ccccc1", 0.341],
  ["O=C(NCCN1CCOCC1)[C@@H]1c2ccccc2C(=O)N(Cc2cc(F)cc(C(F)(F)F)c2)[C@H]1c1ccc(CO)cc1", -0.149],
  ["O=c1cccc(-c2ccc3ccccc3c2)o1", -0.138],
  ["C=CCN1Cc2ccccc2C[C@@]2(COC(c3ccc(OCCCO)cc3)=N2)C1=O", 0.052],
  ["CCOC(=O)C[C@H]1[C@H](OC(=O)c2ccc(C(=O)c3ccccc3)cc2)[C@@H](NC(=O)c2ccc3ccccc3n2)c2cc(OCCCO)ccc2N1C(=O)c1ccc2ccccc2n1", 0.0746],
  ["CC1CC/C=C\\[C@H]2OC34C=CCN(CCN5CCOCC5)C(=O)[C@H]3N(CCCCCO)C(=O)[C@@H]4C2C(=O)O1 (some centres undefined)", -0.158],
  ["O=C1O[C@H](c2ccccc2)[C@H](c2ccccc2)N2[C@H]1[C@@H](C(=O)NC[C@H](O)c1ccccc1)[C@]1(C(=O)Nc3ccc(C#CC4(O)CCCCCC4)cc31)[C@H]2c1ccccc1OCCO", -0.182],
  ["COC(=O)[C@@]1(Cc2ccc(F)cc2)[C@H]2c3cc(C(=O)N4CCCC4)n(CCc4ccc(OC)c(Br)c4)c3C[C@H]2CN1C(=O)c1ccccc1", 0.324],
  ["O=C(NCC(O)CO)[C@]1(CCS(=O)(=O)c2ccccc2)N=C(c2ccc(OCCCO)cc2)O[C@@H]1c1ccccc1 (some centres undefined)", -0.0913],
  ["O=C1OCC=C[C@H]2OC34C=CCN(CCN5CCOCC5)C(=O)[C@H]3N(CCCCCCO)C(=O)[C@@H]4[C@@H]12 (some centres undefined)", 0.0792],
  ["COCCOC(=O)N1C(=O)[C@@]2(c3cc(C#Cc4ccc(OC)cc4)ccc31)[C@H](C(N)=O)[C@H]1C(=O)O[C@H](c3ccccc3)[C@H](c3ccccc3)N1[C@@H]2c1ccc(O)cc1", -0.627],
  ["COCCn1c(C(=O)N(C)C)cc2c1C[C@H]1CN(C(=O)c3ccccc3)[C@@](Cc3ccc(F)cc3)(C(=O)OC)[C@@H]21", 0.0492],
  ["CN(C)CCCC[C@@H]1NC(=O)[C@@H]2C[C@H](C(=O)NCCCCCN)[C@H](c3ccc(O)cc3)N2C1=O", -0.075],
  ["O=C1O[C@@H](c2ccccc2)[C@@H](c2ccccc2)N2[C@@H](c3ccc(O)cc3)[C@]3(C(=O)Nc4ccccc43)[C@@H](C(=O)NC[C@H](O)c3ccccc3)[C@H]12", -0.112],
  ["C=C(CCCC)/C(=C/C[C@H](OC(C)=O)c1ccc(CO)o1)c1cc(C(=O)OC)ccc1OC", -0.125]
]}
